Cited source: the supplement of paper PMC8975748

# System: Saccharomyces cerevisiae BY4741 SeMeCo community
# Run Description: z-score of subpopulation abundance vs DMSO median, subpopulation auxotrophic for UM; higher = larger share of this subpopulation than in DMSO controls
# Test Settings: 10 µM; 24 h; SM minimal medium; subpopulation (auxotrophy): UM
Counter-ions that a name gives are not always drawn.
Property: z-score of subpopulation abundance

Take a look at these entries with their results.
>  <Compound>
C[C@@H]1C/C=C/C=C/C=C/C=C/[C@H](O[C@@H]2O[C@H](C)[C@@H](O)[C@H](N)[C@@H]2O)C[C@@H]2O[C@](O)(C[C@@H](O)C[C@H]3O[C@@H]3/C=C/C(=O)O1)C[C@H](O)[C@H]2C(=O)O [Natamycin]

>  <Property>
z-score of subpopulation abundance

>  <Measured>
9.97

$$$$
>  <Compound>
Fc1ccc([C@@H]2CCNC[C@H]2COc2ccc3c(c2)OCO3)cc1 [Paroxetine mesylate]

>  <Property>
z-score of subpopulation abundance

>  <Measured>
0.67

$$$$

Prompt line: I have this compound here, CCCCCOc1ccc(-c2cc(-c3ccc(C(=O)N[C@H]4C[C@@H](O)[C@@H](O)NC(=O)[C@@H]5[C@@H](O)[C@@H](C)CN5C(=O)[C@H]([C@H](O)CC(N)=O)NC(=O)[C@H]([C@H](O)[C@@H](O)c5ccc(O)c(OS(=O)(=O)O)c5)NC(=O)[C@@H]5C[C@@H](O)CN5C(=O)[C@H]([C@@H](C)O)NC4=O)cc3)no2)cc1 [Micafungin Sodium] , and I need its recorded z-score of subpopulation abundance.
Response line: 1.81

###

# Test system: Saccharomyces cerevisiae BY4741 SeMeCo community
# Run Description: z-score of subpopulation abundance vs DMSO median, subpopulation auxotrophic for L; higher = larger share of this subpopulation than in DMSO controls
# Test Settings: 10 µM; 24 h; SM minimal medium; subpopulation (auxotrophy): L
Structures can show the parent of a compound that is named as a salt.
Could you please report measured z-score of subpopulation abundance for the items listed next?
Numbers only.

Recorded results for 4 compounds are shown here.
>  <Compound>
C[n+]1ccccc1C=NO [Pralidoxime Iodide]

>  <z-score of subpopulation abundance>
-0.18

$$$$
>  <Compound>
CC(=O)OCC(CCn1cnc2cnc(N)nc21)COC(C)=O [Famciclovir]

>  <z-score of subpopulation abundance>
0.46

$$$$
>  <Compound>
Cc1c(OCC(F)(F)F)ccnc1C[S@@+]([O-])c1nc2ccccc2[nH]1 [Dexlansoprazole]

>  <z-score of subpopulation abundance>
0.56

$$$$
>  <Compound>
C[C@]12CC[C@@H]3c4ccc(OC(=O)c5ccccc5)cc4CC[C@H]3[C@@H]1CC[C@@H]2O [Estradiol Benzoate]

>  <z-score of subpopulation abundance>
0.05

$$$$

// for each compound below, give its z-score of subpopulation abundance
1. Cc1onc(-c2ccccc2)c1-c1ccc(S(N)(=O)=O)cc1 [Valdecoxib]
2. N/C(=N\N=C\c1ccc(Cl)cc1)N/N=C/c1ccc(Cl)cc1 [Robenidine Hydrochoride]
3. CC1(C)S[C@@H]2[C@H](NC(=O)[C@H](NC(=O)N3CCNC3=O)c3ccccc3)C(=O)N2[C@H]1C(=O)O [Azlocillin sodium salt]
4. Cc1cc(O)cc(C)c1Cl [Chloroxylenol]
5. O=C(O)c1cc(/N=N/c2ccc(O)c(C(=O)O)c2)ccc1O [Olsalazine Sodium]
6. CCOc1cc(NC(C)=O)ccc1C(=O)OC [Ethopabate]
7. CSc1nc2cc(Cl)c(Oc3cccc(Cl)c3Cl)cc2[nH]1 [Triclabendazole]

Response line:
0.01
-1.06
1.83
0.85
-0.47
0.35
-0.07

Need z-score of subpopulation abundance for each of these compounds.
1. c1cnc(N2CCN(Cc3ccc4c(c3)OCO4)CC2)nc1 [Piribedil]
2. CC(Cc1ccc(O)c(O)c1)C(C)Cc1ccc(O)c(O)c1 (stereo not given) [Nordihydroguaiaretic acid (NDGA)]
3. CC1(C)S[C@@H]2[C@H](NC(=O)Cc3ccccc3)C(=O)N2[C@H]1C(=O)O [Penicillin G Sodium]

Response line:
[0.51, 0.06, -0.1]

Hey, can you go through the list below and give me z-score of subpopulation abundance for every item?
1. C[C@@H](O)[C@H]1C(=O)N2C(C(=O)O)=C(S[C@@H]3CN[C@H](CNS(N)(=O)=O)C3)[C@H](C)[C@H]12 [Doripenem Hydrate]
2. CN1[C@@H]2CC[C@H]1C[C@@H](OC(=O)c1c[nH]c3ccccc13)C2 [Tropisetron HCl]
3. Fc1ccc([C@@H]2CCNC[C@H]2COc2ccc3c(c2)OCO3)cc1 [Paroxetine HCl]
4. CC(C)NNC(=O)c1ccncc1 [Iproniazid]
5. CC(C)(O/N=C(\C(=O)N[C@@H]1C(=O)N2C(C(=O)[O-])=C(C[n+]3ccccc3)CS[C@H]12)c1csc(N)n1)C(=O)O [Ceftazidime]

Response line:
[0.82, 0.79, -0.43, -0.39, -0.23]

Provide reported z-score of subpopulation abundance for each item, in the same order as listed.
1. COC(=O)Nc1nc2cc(C(=O)c3ccc(F)cc3)ccc2[nH]1 [Flubendazole]
2. CNCC[C@H](Oc1cccc2ccccc12)c1cccs1 [Duloxetine]
3. CC(C(=O)O)c1cccc(C(=O)c2ccccc2)c1 (stereo not given) [Ketoprofen]
4. O=C1N=C(O)NC1(c1ccccc1)c1ccccc1 [Phenytoin Sodium]
5. C=C1CCN([C@H](C)[C@](O)(Cn2cncn2)c2ccc(F)cc2F)CC1 [Efinaconazole]
6. COC(=O)C1=C(C)NC(C)=C(C(=O)OC(C)(C)CN(C)CCC(c2ccccc2)c2ccccc2)C1c1cccc([N+](=O)[O-])c1 (stereo not given) [Lercanidipine]
7. CC1(C)S[C@@H]2[C@H](NC(=O)C(c3ccccc3)S(=O)(=O)O)C(=O)N2[C@H]1C(=O)O (stereo not given in full) [Sulbenicillin Sodium]
8. Nc1ccc(S(=O)(=O)c2ccc(N)cc2)cc1 [Dapson]

Response line:
0.41
-1.31
1.73
0.11
0.13
1.24
-0.32
0.59

Kindly give each listed record's z-score of subpopulation abundance.
1. CC[N+](CC)(CC)CCOc1cccc(OCC[N+](CC)(CC)CC)c1OCC[N+](CC)(CC)CC [Gallamine Triethiodide]
2. OCCOc1ccc(/C(=C(/CCCl)c2ccccc2)c2ccccc2)cc1 [Ospemifene]
3. Clc1ccc(COC(Cn2ccnc2)c2ccc(Cl)cc2Cl)c(Cl)c1 (stereo not given) [Miconazole]
4. CCN(CC)CCOC(=O)c1ccc(N)cc1 [Procaine]

Response line:
[-0.79, -0.6, -2.13, -0.42]

List the reported z-score of subpopulation abundance of each compound below.
1. CCn1cc(C(=O)O)c(=O)c2ccc(C)nc21 [Nalidixic acid]
2. CC1(C)[C@H](C(=O)O)N2C(=O)C[C@H]2S1(=O)=O [Sulbactam]
3. CO/N=C(\C(=O)N[C@@H]1C(=O)N2C(C(=O)O)=C(COC(N)=O)CS[C@H]12)c1ccco1 [Cefuroxime sodium]
4. Nc1nc2ccc(OC(F)(F)F)cc2s1 [Riluzole]

Response line:
1.23
0.57
-0.97
0.43

###

# System: Saccharomyces cerevisiae BY4741 SeMeCo community
# Run Description: mean cell size (pixel area) (pixels); higher = larger cells
# Test Settings: 10 µM; 24 h; SM minimal medium
Property: mean cell size
Answers are plain numbers.

>  <Compound>
CC[C@H]1OC(=O)C[C@@H](O)[C@H](C)[C@@H](O[C@@H]2O[C@H](C)[C@@H](O[C@H]3C[C@@](C)(O)[C@@H](O)[C@H](C)O3)[C@H](N(C)C)[C@H]2O)[C@@H](CC=O)C[C@@H](C)C(=O)/C=C/C(C)=C/[C@@H]1CO[C@@H]1O[C@H](C)[C@@H](O)[C@@H](OC)[C@H]1OC [Tylosin]

>  <Property>
mean cell size

>  <Measured>
12.2

$$$$

Please look at the following compound next.
Prompt line: Form field: reported mean cell size of COc1ccc2[nH]c([S@@+]([O-])Cc3ncc(C)c(OC)c3C)nc2c1 [NEXIUM (esomeprazole magnesium)]
Response line: 12.5

###

Would you kindly list z-score of subpopulation abundance for each of these molecules?
# Test system: Saccharomyces cerevisiae BY4741 SeMeCo community
# Run Description: z-score of subpopulation abundance vs DMSO median, subpopulation auxotrophic for HUM; higher = larger share of this subpopulation than in DMSO controls
# Test Settings: 10 µM; 24 h; SM minimal medium; subpopulation (auxotrophy): HUM
Structures can show the parent of a compound that is named as a salt.
Give bare numbers.

In the examples that follow, each entry is paired with its recorded z-score of subpopulation abundance.
>  <Molecule>
CN1C2CCCC1CC(NC(=O)c1nn(C)c3ccccc13)C2 (centres undefined) [Granisetron HCl]

>  <Measured>
0.03

$$$$
>  <Molecule>
CC(=O)O[C@H]1C[C@@H]2CC[C@@H]3[C@H](CC[C@@]4(C)[C@H]3C[C@H]([N+]3(C)CCCCC3)[C@@H]4OC(C)=O)[C@@]2(C)C[C@@H]1N1CCCCC1 [Vecuronium Bromide]

>  <Measured>
0.09

$$$$
>  <Molecule>
CC(C)n1c(/C=C/C(O)CC(O)CC(=O)O)c(-c2ccc(F)cc2)c2ccccc21 (centres undefined) [Fluvastatin Sodium]

>  <Measured>
12.8

$$$$

// moving on: another record for z-score of subpopulation abundance
Prompt line: I have this molecule here, CCC[C@@H]1C[C@@H](C(=O)N[C@@H]([C@H]2O[C@H](SC)[C@H](OP(=O)(O)O)[C@@H](O)[C@H]2O)[C@H](C)Cl)N(C)C1 [Clindamycin Phosphate] , and I need its recorded z-score of subpopulation abundance.
Response line: 0.81
